meta.source: PubChem BioAssay AID652

Biological target: Gag-Pol polyprotein (Human immunodeficiency virus type 1 group M subtype B (isolate HXB2)) (UniProt P04585)
Test: HIV-1 RT RNase H inhibitor potency, dose response, biochemical, probe assessment (AID 652)
Conditions: HIV-1 RT RNase H enzymatic assay, inhibition, at 50 µM, stronger effect = higher value
Quick reference: inhibition of the listed items.
Property: inhibition (%)

- CCOc1cc(C2C(C#N)=C(N)SC(N)=C2C#N)ccc1OCCN1CCOCC1: 41.5
- O=C(CCN1C(=O)c2ccccc2C1=O)Nc1ccc(-c2nc3ccccc3o2)cc1: 92.1
- CN1CSC2=C(C#N)C(c3cccc(OCc4ccccc4)c3)CC(=O)N2C1 (stereo not drawn): 89.7
- COc1ccc(OC)c(Nc2nc(-c3ccc(O)c(O)c3)cs2)c1: 97.8
- Cc1cc(C)c(NC(=O)Cn2c(=O)n(Cc3ccco3)c(=O)c3ccccc32)c(C)c1: 76.8
- O=c1[nH]c(=O)n(-c2ccc(F)cc2)c(O)c1C=Nc1ccccc1N1CCCC1: 83.7
- COC(=O)c1sc(N2C(=O)c3oc4ccccc4c(=O)c3C2c2cccs2)nc1C (stereo not drawn): 95.8
- C=CCn1c(SCC(=O)c2ccc(O)c(O)c2)nnc1-c1ccccc1OC: 97.5
- Cc1sc(NC(=O)c2oc3ccccc3c2C)c(C#N)c1C: 90.3
- Cc1ccc(NC(=O)Cn2nnc(C(=O)Nc3ccc(C)c(C)c3)c2N)cc1: 76.8
- O=C1CC(c2ccccc2)Cc2nc(N3CCc4ccccc43)ncc21 (stereo not drawn): 94.6
- CC(C)C1N=C2c3ccccc3N=C(SCC(=O)c3ccc(O)c(O)c3)N2C1=O (stereo not drawn): 99.8
- CCOC(=O)c1c(C2COc3ccccc3O2)csc1NC(=O)c1ccco1 (stereo not drawn): 96.6
- CCCc1nc2ccccc2c(=O)n1/N=C/c1ccc(O)c(O)c1: 97.3
- Cc1cc(C)c2oc(-c3ccc(Cl)c(NC(=O)c4ccc(C#N)cc4F)c3)nc2c1: 91
- CN(C)c1ccc(N=Cc2c(O)n(CCC3=CCCCC3)c(=O)[nH]c2=O)cc1: 80.1
- COc1ccc(OC)c(CCNC(=O)Cn2sc3nc(C)cc(C)c3c2=O)c1: 91.6
- CC(C)Sc1nc(-c2cccs2)nc2c1c(=O)n(C)c(=O)n2C: 98.9
- CCCc1cc(C(N)=O)c(NC(=O)C2CCCO2)s1 (stereo not drawn): 98.3
- COCCn1c(-c2ccc(-c3ccccc3Cl)o2)nc2c1c(=O)[nH]c(=O)n2CC(C)C: 85
- CC(C)Cn1c(SCC(=O)NC(=O)Nc2ccc3c(c2)OCCO3)nc2ccccc2c1=O: 83.9
- c1ccc(Cc2nn3c(Cn4nnc5ccccc54)nnc3s2)cc1: 96.1
- Cc1ccc2c(c1C)NC(C(=O)O)C1CC=CC21 (stereo not drawn): 96.5
- CCOC(=O)C1=C(C)N=c2s/c(=C3\C(=O)Nc4ccccc43)c(=O)n2C1c1ccc2c(c1)OCO2 (stereo not drawn): 83.8
- COC(=O)c1ccccc1NC(=O)c1ccc2c(c1)C(=O)N(Cc1ccco1)C2=O: 93.3
- CN1CCN(C(=O)c2sc(=S)n(-c3ccccc3)c2N)CC1: 73.1
- CCc1ccccc1N1CSC2=C(C#N)C(c3cc(OC)c(OC)cc3OC)CC(=O)N2C1 (stereo not drawn): 98.3
- Cc1ccc(Cn2c(SCC(C)C)nc3c2c(=O)[nH]c(=O)n3C)cc1: 91.8
- CC(C)CN(C(=O)COC(=O)c1ccc2c(c1)NC(=O)CS2)C1CCS(=O)(=O)C1 (stereo not drawn): 55.8
- COc1ccc(-n2nc3cc(C)c(NC(=O)CC(C)C)cc3n2)cc1: 93.4
- Cc1sc2nc(SCC(=O)NCc3ccco3)n(CCc3ccccc3)c(=O)c2c1C: 82.4
- CCC(C)Sc1nc2c(c(=O)[nH]c(=O)n2C)n1CC(O)COc1cccc2ccccc12 (stereo not drawn): 95
- CCCc1nnc(NC(=O)CN2C(=O)c3ccccc3S2(=O)=O)s1: 75.7
- COc1cc(-c2nnc3sc(Cc4ccc(Cl)cc4)nn23)cc(OC)c1OC: 96.4
- CCCSc1nc2c(cnn2-c2ccc(Cl)cc2)c(=O)[nH]1: 92.8
- CCOC(=O)c1c(NC(=O)c2ccc(-n3cnnn3)cc2)sc2c1CCCC2: 88.3
- CCOC(=O)Cc1csc(-n2sc3ccccc3c2=O)n1: 96.4
- Cc1ccc(-c2cc(C(F)F)n3ncc(C(=O)NCc4ccco4)c3n2)cc1: 93
- N#Cc1c(NC(=O)c2ccc(Cn3cc(Br)cn3)o2)sc2c1CCCCCC2: 98
- Cc1cccc(Nc2n[nH]c(=S)s2)c1C: 96.9
- CCn1c2ccccc2c2nc3cc(S(=O)(=O)N4CCOCC4)ccc3nc21: 88.9
- COc1ccc(N2CSC3=C(C#N)C(c4ccc(OC)c(OC)c4)CC(=O)N3C2)c(OC)c1 (stereo not drawn): 79.7
- CCn1c(SCC(=O)c2ccc(O)c(O)c2)nnc1-c1ccccc1OC: 98.4

* * *

Molecular target: Gag-Pol polyprotein (Human immunodeficiency virus type 1 group M subtype B (isolate HXB2))
Assay: HIV-1 RT RNase H inhibitor potency, dose response, biochemical, probe assessment (AID 652)
Settings: HIV-1 RT RNase H enzymatic assay
The source made the active and inactive calls. The rule behind the calls is not given here.
Property: IC50

• O=C(Nc1nc(-c2ccncc2)cs1)C1COc2ccccc2O1 (stereo not drawn) = > 50 µM (inactive)
• CCOc1cccc(C=Nc2cc(C)cc(C)c2O)c1O = > 50 µM (inactive)
• O=C1C=Cc2ccccc2C1=O = 2.64 µM
• O=c1/c(=C/c2ccccn2)sc2nc3ccccc3n12 = 14.6 µM
• O=C1CCCC(O)=C1C(C#Cc1ccccc1)C1=C(O)CCCC1=O = 1.08 µM
• O=C(CCSCCC(=O)NCc1ccco1)NCc1ccco1 = 0.953 µM
• C=CCOC(=O)C1=C(C)NC(SCC(=O)Nc2ccc(C)c(Cl)c2)=C(C#N)C1c1ccco1 (stereo not drawn) = 4.25 µM
• CCOC(=O)N1CC=C2C(C#N)=C(N)C(C#N)(C#N)[C@H](c3ccc(OC(C)C)c(OCC)c3)[C@H]2C1 = 21.7 µM
• COc1ccc(-n2nc3cc(C)c(NC(=O)CC(C)C)cc3n2)cc1 = 8.06 µM
• COC(=O)C1=C(C)N=c2s/c(=C3\C(=O)Nc4ccccc43)c(=O)n2C1c1ccccc1 (stereo not drawn) = 5.94 µM
• CN1CCN(C2=C(Cl)C(=O)N(c3ccc(Cl)c(Cl)c3)C2=O)CC1 = 27.1 µM
• CN(C)c1ccc(N=Cc2c(O)n(CCC3=CCCCC3)c(=O)[nH]c2=O)cc1 = 3.8 µM
• CSc1ccc(C2C(C#N)=C(N)Oc3c2ccc(=O)c2c(C)oc(C)c32)cc1 (stereo not drawn) = 5.81 µM
• CCN(CC)C1=CC(=O)OC12CCCCC2 = 42.8 µM
• O=S(=O)(/N=S1/CC=CCN1S(=O)(=O)c1ccccc1)c1ccccc1 (stereo not drawn) = 4.33 µM
• CCCCn1c(SCC(=O)OCC)nc2c1c(=O)[nH]c(=O)n2C = > 50 µM (inactive)
• CCCCCCn1c(SCC(=O)OC)nc2c1c(=O)[nH]c(=O)n2C = 3.11 µM
• CCCCn1c(CN2C(=O)c3ccccc3C2=O)nc2ccccc2c1=O = 12.4 µM
• Oc1ccc(-c2nc(-c3ccc(O)c(O)c3)cs2)cc1 = 2.23 µM
• Nc1c(C(=O)NCc2cccnc2)sc(=S)n1-c1ccccc1 = 2.22 µM
• Cc1ccccc1N1C(=O)c2sc3nc4c(c(=O)n3c2C1=O)CCC4 = 2.37 µM
• COc1ccc(C2C(C#N)=C(N)N3C(=C2C#N)Sc2ccccc23)cc1 (stereo not drawn) = 3.35 µM
• C/C=C/CSc1nc2c(c(=O)[nH]c(=O)n2C)n1Cc1ccc(C)cc1 = 11.2 µM

* * *

Target: Gag-Pol polyprotein (Human immunodeficiency virus type 1 group M subtype B (isolate HXB2))
Assay: HIV-1 RT RNase H inhibitor potency, dose response, biochemical, probe assessment (AID 652)
Settings: HIV-1 RT RNase H enzymatic assay, inhibition, at 50 µM, stronger effect = higher value
Outcome: t for inhibition of at least 90%; f for anything lower.

* COc1ccccc1N1CSC2=C(C#N)C(c3ccc(SC)cc3)CC(=O)N2C1 (stereo not given) | t
* CC(C)CNC(=O)c1c(N)n(/N=C/c2ccccn2)c2nc3ccccc3nc12 | t
* Nc1nnc(CSCc2ccc(F)cc2)s1 | f
* O=C(NCc1ccco1)c1cccnc1-c1nc2ccccc2s1 | t
* O=C(c1ccccc1F)N1CCN(S(=O)(=O)c2ccc(S(=O)(=O)N3CCCCC3)cc2)CC1 | t
* CN1CCN(C2=C(Cl)C(=O)N(c3ccc(Cl)c(Cl)c3)C2=O)CC1 | f

* * *

Quick reference: inhibition of the listed items.
Molecular target: Gag-Pol polyprotein (Human immunodeficiency virus type 1 group M subtype B (isolate HXB2)) (UniProt P04585)
Assay: HIV-1 RT RNase H inhibitor potency, dose response, biochemical, probe assessment (AID 652)
Conditions: HIV-1 RT RNase H enzymatic assay, inhibition, at 50 µM, stronger effect = higher value
Property: inhibition (%)

* COc1ccc2ccccc2c1C1CC(=O)N2CN(C3CCCCC3)CSC2=C1C#N (stereo not given) | 92.3
* NC(=O)c1cc(-c2ccccc2)sc1NC(=O)Cc1ccc(S(=O)(=O)N2CCOCC2)s1 | 83.3
* CCC1CCCCN1S(=O)(=O)c1ccc(S(=O)(=O)N2CCN(S(=O)(=O)CC)CC2)cc1 (stereo not given) | 93
* O=C(CSc1ncn[nH]1)c1ccccc1 | 84.1
* CCCc1cc(C(=O)Nc2sc(C)c(C)c2C(=O)OCC)no1 | 98
* c1ccc(N2CCN(c3nc4cc5c(cc4s3)OCO5)CC2)cc1 | 97.6
* CCOc1ccccc1N1CSC2=C(C#N)C(c3c(OC)ccc4ccccc34)CC(=O)N2C1 (stereo not given) | 92
* c1ccc2c(c1)ncn2Cc1nnc2sc(-c3ccc4c(c3)OCO4)nn12 | 93
* c1ccc(Cc2nn3c(COc4ccccc4)nnc3s2)cc1 | 86.8
* Nc1c(S(=O)(=O)c2cccc(Cl)c2)c2nc3ccccc3nc2n1/N=C/c1ccc(O)c(O)c1 | 96.3
